What log10 Ki was measured for each of the following?
biological target: vanilloid receptor (rat spinal cord membrane preparations) (Rattus norvegicus, UniProt O35433); construct: determined on membrane preparations from rat spinal cord; from tissue; host or cells: rat spinal cord membranes; test: biochemical; type: binding
Hello, just confirming the data are log10 of Ki with units of nM.

Examples from the recorded data:
{"COMPOUND": "COCOc1ccc(CNC(=S)NCC(COC(=O)C(C)(C)C)Cc2ccccc2)cc1OC (stereo not shown)", "log10 Ki": 2.16}
{"COMPOUND": "COCOc1ccc(CNC(=S)NCC(COC(=O)C(C)(C)C)Cc2ccc(C)c(C)c2)cc1OC (stereo not shown)", "log10 Ki": 2.94}
{"COMPOUND": "COc1cc(CNC(=S)NCC(COCc2ccccc2)Cc2ccccc2)ccc1O (stereo not shown)", "log10 Ki": 2.17}
{"COMPOUND": "COc1cc(CNC(=S)NCC(COCc2ccccc2)Cc2ccc(Cl)cc2)ccc1O (stereo not shown)", "log10 Ki": 2.82}
{"COMPOUND": "COc1cc(CNC(=S)NCC(COC(=O)C(C)C)Cc2ccccc2)ccc1O (stereo not shown)", "log10 Ki": 2.12}
{"COMPOUND": "COc1cc(CNC(=S)NC[C@H](COC(=O)C(C)(C)C)Cc2ccccc2)ccc1O [(R)-7a-I]", "log10 Ki": 1.26}

Now consider a different compound.
compound C=C(C)[C@]12C[C@@H](C)[C@@]34O[C@](Cc5ccccc5)(O[C@@H]1[C@@H]3C=C(COC(=O)Cc1ccc(O)c(OC)c1)C[C@]1(O)C(=O)C(C)=C[C@@H]41)O2 [RTX, Resiniferatoxin, reference compound] , log10 Ki observed: -1.64

----------
target: CAP-activated channels in cultured neonatal rat dorsal root ganglion (DRG) neurons (Rattus norvegicus); construct: extracellular application of the compounds to cultured neonatal rat dorsal root ganglion (DRG) neurons; endogenous in cells; host or cells: primary cultured DRG neurons from 1 or 2 day old neonatal rats; type: cell-based; parameters: key: + = CAP; ++ = 10 CAP; +++ = 100 CAP
Sequence (O35433 whole entry): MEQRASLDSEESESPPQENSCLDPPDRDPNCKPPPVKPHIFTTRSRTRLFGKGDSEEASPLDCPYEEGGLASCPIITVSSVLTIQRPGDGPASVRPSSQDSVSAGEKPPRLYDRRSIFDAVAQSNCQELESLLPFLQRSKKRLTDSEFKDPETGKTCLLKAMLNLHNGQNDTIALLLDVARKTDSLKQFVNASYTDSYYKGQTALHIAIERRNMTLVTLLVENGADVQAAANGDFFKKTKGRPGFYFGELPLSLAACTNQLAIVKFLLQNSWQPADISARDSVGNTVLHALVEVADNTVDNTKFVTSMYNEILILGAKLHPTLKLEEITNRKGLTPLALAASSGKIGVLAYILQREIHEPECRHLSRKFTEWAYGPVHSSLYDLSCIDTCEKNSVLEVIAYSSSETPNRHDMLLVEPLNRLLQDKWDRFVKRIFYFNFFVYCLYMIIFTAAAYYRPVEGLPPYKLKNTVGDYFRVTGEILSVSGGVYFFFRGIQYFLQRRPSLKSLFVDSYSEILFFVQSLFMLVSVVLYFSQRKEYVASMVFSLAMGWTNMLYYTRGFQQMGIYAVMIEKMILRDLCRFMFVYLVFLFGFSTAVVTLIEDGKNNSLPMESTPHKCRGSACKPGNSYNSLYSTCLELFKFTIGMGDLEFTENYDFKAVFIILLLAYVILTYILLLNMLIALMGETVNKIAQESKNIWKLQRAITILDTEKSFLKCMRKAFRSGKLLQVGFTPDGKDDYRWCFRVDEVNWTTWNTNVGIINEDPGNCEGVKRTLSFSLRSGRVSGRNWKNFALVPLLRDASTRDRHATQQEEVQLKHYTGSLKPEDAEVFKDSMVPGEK
READOUT NAME: Activations

{"COMPOUND": "COc1cc(CNC(=S)NCC(COC(=O)C(C)C)Cc2ccccc2)ccc1O (centres unmarked) [7a-II]", "Activations": "+++"}
{"COMPOUND": "COc1cc(CNC(=S)NCC(COCc2ccccc2)Cc2ccc(Cl)cc2)ccc1O (centres unmarked) [9c]", "Activations": "++"}
{"COMPOUND": "COc1cc(CNC(=S)NCC(COCc2ccccc2)Cc2ccccc2)ccc1O (centres unmarked) [9a]", "Activations": "++"}
{"COMPOUND": "COc1cc(CNC(=S)NC[C@H](COC(=O)C(C)(C)C)Cc2ccccc2)ccc1O [(R)-7a-I]", "Activations": "+++"}

Now consider a different compound.
compound COCOc1ccc(CNC(=S)NCC(COC(=O)C(C)(C)C)Cc2ccccc2)cc1OC (centres unmarked) [compound 10] , Activations observed: ++
